- measuredOn: HaSCP-2 I117M (Helicoverpa armigera, UniProt K7NSY9, I507M)
- Sequence (K7NSY9 entry or part of it I507M): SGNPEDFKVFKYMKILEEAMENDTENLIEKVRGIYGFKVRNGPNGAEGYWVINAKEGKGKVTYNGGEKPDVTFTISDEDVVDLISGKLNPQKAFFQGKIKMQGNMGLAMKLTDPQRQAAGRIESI
- Assay type: binding
- reportedConditions: mutant I117M; P vs WT 0.043
propertyMeasured: pKd
// pKd: -log10(molar conc.)

Q: Which pKd is reported for this molecule? C[C@H](CNc1ccc([N+](=O)[O-])c2nonc12)[C@H]1CC[C@H]2[C@@H]3CC=C4C[C@@H](O)CC[C@]4(C)[C@H]3CC[C@]12C [NBD-cholesterol]
Result: 5.74

----------
- measuredOn: HaSCP-2 Y51A (Helicoverpa armigera, UniProt K7NSY9, Y441A)
- Sequence (K7NSY9 entry or part of it Y441A): as the sequence (K7NSY9 entry or part of it I507M) above, with Y35A, M101I counted along it
- reportedConditions: mutant Y51A; P vs WT 0.023
- Description: In order to further confirm the key residues of HaSCP-2 that are involved in the ligand binding, based on the HaSCP-2 structure and docking simulation results we selected several predicted amino acid residues as shown in Table 3 (cholesterol and β-sitosterol) to perform single site mutation experiments to investigate the mechanism of ligand binding in HaSCP-2. […] HaSCP-2 binding activity to cholesterol was determined by using NBD-cholesterol binding assays. […]
propertyMeasured: Kd
Returns: string containing the number followed by the unit.

Q: Which Kd is reported for this molecule? C[C@H](CNc1ccc([N+](=O)[O-])c2nonc12)[C@H]1CC[C@H]2[C@@H]3CC=C4C[C@@H](O)CC[C@]4(C)[C@H]3CC[C@]12C [NBD-cholesterol]
Result: 2650 nM

----------
- measuredOn: full length HaSCP-2 (Helicoverpa armigera)
- Sequence (K7NSY9 entry or part of it): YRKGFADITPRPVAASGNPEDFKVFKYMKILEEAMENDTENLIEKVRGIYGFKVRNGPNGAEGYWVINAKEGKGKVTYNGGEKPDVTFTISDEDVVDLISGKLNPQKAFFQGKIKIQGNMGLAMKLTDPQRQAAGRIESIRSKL
- assayText: NBD-cholesterol binding assay, full length (deduced) HaSCP-2
- reportedConditions: NBD-cholesterol 0.25 μM, protein 25 nM to 15 μM, one site binding non-linear regression, R^2 = 0.99
propertyMeasured: pKd
// pKd: -log10(molar conc.)

Q: Which pKd is reported for this compound? C[C@H](CNc1ccc([N+](=O)[O-])c2nonc12)[C@H]1CC[C@H]2[C@@H]3CC=C4C[C@@H](O)CC[C@]4(C)[C@H]3CC[C@]12C
Result: 5.55

----------
- measuredOn: HaSCP-2 Q131A (Helicoverpa armigera, UniProt K7NSY9, Q521A)
- Sequence (K7NSY9 entry or part of it Q521A): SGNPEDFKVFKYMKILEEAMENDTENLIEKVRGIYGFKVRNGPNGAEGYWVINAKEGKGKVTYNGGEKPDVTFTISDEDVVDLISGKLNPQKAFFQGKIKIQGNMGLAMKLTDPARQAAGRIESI
- reportedConditions: mutant Q131A; P vs WT 0.034
propertyMeasured: Kd (µM)
Write it as a number; the unit µM goes unstated.

Q: Which Kd is reported for this compound? C[C@H](CNc1ccc([N+](=O)[O-])c2nonc12)[C@H]1CC[C@H]2[C@@H]3CC=C4C[C@@H](O)CC[C@]4(C)[C@H]3CC[C@]12C
Result: 3.77

----------
- measuredOn: HaSCP-2 F53W (Helicoverpa armigera, UniProt K7NSY9, F443W)
- Sequence (K7NSY9 entry or part of it F443W): as the sequence (K7NSY9 entry or part of it I507M) above, with F37W, M101I counted along it
- reportedConditions: mutant F53W; P vs WT 0.026
propertyMeasured: Kd

Q: Which Kd is reported for this compound? C[C@H](CNc1ccc([N+](=O)[O-])c2nonc12)[C@H]1CC[C@H]2[C@@H]3CC=C4C[C@@H](O)CC[C@]4(C)[C@H]3CC[C@]12C [NBD-cholesterol]
Result: 3.41 µM

----------
I'd appreciate it if you could supply EC50 values for the items below.
- measuredOn: UniProtKB K7NSY9
- assayText: biochemical
Returns: string containing the number followed by the unit.

Q: Which EC50 is reported for this compound? COc1c(O)cc2oc3cc(O)c(CC=C(C)C)c(O)c3c(=O)c2c1CC=C(C)C
Result: 730 nM

Q: Which EC50 is reported for this compound? Br.CC(=O)Nc1ccc(Nc2nc(-c3ccc(Cl)c(Cl)c3)cs2)cc1
Result: 760 nM

This collection of values is drawn from paper PMC4674756.
